B1: RTN1 (parent)
chain: VVAYLALAALSATISFRIYKSVLQ

Variants of: B1
protocol.notes: protein stability index of a GFP-peptide fusion (GPS, HEK-293T) (PSI 1-6); higher = more stable;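 note: lentivirally expressed fusions sorted by FACS into six bins by GFP to DsRed ratio, PSI derived from sequencing read proportions per bin multiplied by bin number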
conditions: c terminus: a fixed tail appended
Catalogue of variants with associated protein stability index
measured.endpoint: protein stability index

seq	measured.endpoint	observed.value
VVAYLALAALGATISFRIYKSVLQ [S11G]	protein stability index	2.02
VVAYLALAALSATLSFRIYKSVLQ [I14L]	protein stability index	1.7
VVATLALAALSATISFRIYKSVLQ [Y4T]	protein stability index	4.26
VVAYLALAALSATISFRIYKSVVQ [L23V]	protein stability index	2.5
VVAYLANAALSATISFRIYKSVLQ [L7N]	protein stability index	2.38
VVAYLALAALWATISFRIYKSVLQ [S11W]	protein stability index	2.55
VVAYLALAALSARISFRIYKSVLQ [T13R]	protein stability index	2.82

Reference for the values: the supplement of paper PMC10567573
